- Target Entity: UniProtKB Q9R152
- Run Description: Intracellular PARP inhibitory activity (NAD(P)H released by MMS-treated CHO-K1 cells)
- Assay type: cell-based
- Experimental Conditions: CHO-K1 cells, NAD(P)H released 4 hours after MMS treatment; read-out: PARP-1 Inhibitory activity IC50
pIC50: −log10 of the molar value. Where a name gives a salt, the structure may show the parent alone.
Quantity: pIC50

>>> readout_number("CN(C)c1ccc2c3c(c(=O)[nH]c2c1)CCCN3 [Example 37, hydrochloride]")
5.31

---

- Target Entity: PARP-1 enzyme (Homo sapiens (Human))
- Run Description: Poly(ADP-ribose)polymerase [PARP-1] enzyme inhibitory activity (Trevigen PARP Assay kit)
- Format: biochemical
- Experimental Conditions: read-out: PARP-1 Inhibitory activity IC50
Counter-ions that a name gives are not always drawn.
Measured IC50 by item
Quantity: IC50 (µM)

>>> readout_number("CCCOc1cc(CN)cc2[nH]c(=O)c3c(c12)NCCC3 [Example 114, dihydrochloride]")
0.19
>>> readout_number("COc1cc(CNC(C)C)cc2[nH]c(=O)c3c(c12)NCCC3 [Example 88, dihydrochloride]")
0.11
>>> readout_number("O=c1[nH]c2cc(CN3CCOCC3)ccc2c2c1CCCN2 [Example 49, dihydrochloride]")
0.62
>>> readout_number("CN(CCC(=O)O)Cc1ccc2c3c(c(=O)[nH]c2c1)CCCN3 [Example 58, dihydrochloride]")
0.92
>>> readout_number("CN(C)CCc1ccc2c3c(c(=O)[nH]c2c1)CCCN3 [Example 32, dihydrochloride]")
0.23
>>> readout_number("O=c1[nH]c2cc(CN3CCCCC3)ccc2c2c1CCCN2 [Example 48, dihydrochloride]")
0.13
>>> readout_number("COc1cc(CN2CC(C)OC(C)C2)cc2[nH]c(=O)c3c(c12)NCCC3 (stereo not shown) [Example 90, dihydrochloride]")
0.78
>>> readout_number("COc1cc(CN(C)CCF)cc2[nH]c(=O)c3c(c12)NCCC3 [Example 94, dihydrochloride]")
0.17
>>> readout_number("CN(C)CCOc1ccc2[nH]c(=O)c3c(c2c1)NCCC3 [Example 16, dihydrochloride]")
0.37
>>> readout_number("N#CCNCc1ccc2c3c(c(=O)[nH]c2c1)CCCN3 [Example 63, dihydrochloride]")
1.02
>>> readout_number("CN(C)Cc1ccc2c3c(c(=O)[nH]c2c1)CCCN3 [Example 41, dihydrochloride]")
0.04
>>> readout_number("O=c1[nH]c2ccc(OCCN3CCC(c4ccccc4)CC3)cc2c2c1CCCN2 [Example 23, dihydrochloride]")
1.43
>>> readout_number("O=c1[nH]c2cc(Cc3nnn[nH]3)ccc2c2c1CCCN2 [Example 95, hydrochloride]")
0.49

---

- Target Entity: PARP-1 enzyme (Homo sapiens (Human), UniProt P09874)
- Sequence (P09874 whole entry): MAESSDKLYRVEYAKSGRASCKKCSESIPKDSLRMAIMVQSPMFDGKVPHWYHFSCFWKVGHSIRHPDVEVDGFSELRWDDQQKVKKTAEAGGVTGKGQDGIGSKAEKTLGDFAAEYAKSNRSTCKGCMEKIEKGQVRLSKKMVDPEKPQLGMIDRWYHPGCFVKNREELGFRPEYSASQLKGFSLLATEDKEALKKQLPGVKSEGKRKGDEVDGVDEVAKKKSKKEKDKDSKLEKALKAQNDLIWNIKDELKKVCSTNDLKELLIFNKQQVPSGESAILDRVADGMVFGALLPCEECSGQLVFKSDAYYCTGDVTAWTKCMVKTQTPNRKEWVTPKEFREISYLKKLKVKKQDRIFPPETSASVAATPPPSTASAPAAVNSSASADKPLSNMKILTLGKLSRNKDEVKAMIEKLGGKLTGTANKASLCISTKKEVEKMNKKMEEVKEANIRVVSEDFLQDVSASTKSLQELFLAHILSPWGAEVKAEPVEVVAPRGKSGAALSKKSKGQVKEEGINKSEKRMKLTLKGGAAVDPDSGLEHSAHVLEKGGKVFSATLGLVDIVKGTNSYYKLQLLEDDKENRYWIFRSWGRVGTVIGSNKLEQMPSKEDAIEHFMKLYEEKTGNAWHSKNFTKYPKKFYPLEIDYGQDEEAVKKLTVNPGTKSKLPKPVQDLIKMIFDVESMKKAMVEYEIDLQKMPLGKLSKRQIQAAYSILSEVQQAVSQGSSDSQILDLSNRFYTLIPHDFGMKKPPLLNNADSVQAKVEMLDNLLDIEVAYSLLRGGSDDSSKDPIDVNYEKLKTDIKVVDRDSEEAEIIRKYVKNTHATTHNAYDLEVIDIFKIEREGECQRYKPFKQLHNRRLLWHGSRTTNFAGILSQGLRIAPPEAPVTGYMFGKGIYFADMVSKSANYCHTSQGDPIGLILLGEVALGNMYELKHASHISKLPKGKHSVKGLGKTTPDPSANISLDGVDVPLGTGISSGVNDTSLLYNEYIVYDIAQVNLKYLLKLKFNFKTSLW
- Run Description: Poly(ADP-ribose)polymerase [PARP-1] enzyme inhibitory activity (Trevigen PARP Assay kit)
- Type: biochemical
pIC50: −log10 of the molar value. Counter-ions that a name gives are not always drawn.
Quantity: pIC50

>>> readout_number("COc1cc(CN2CCC(=NO)CC2)cc2[nH]c(=O)c3c(c12)NCCC3 [Example 79, trihydrochloride]")
6.74

---

Measured IC50 by item
- Target Entity: PARP-1 enzyme (Cricetulus griseus (Chinese hamster) (Cricetulus barabensis griseus))
- Sequence (Q9R152 whole entry): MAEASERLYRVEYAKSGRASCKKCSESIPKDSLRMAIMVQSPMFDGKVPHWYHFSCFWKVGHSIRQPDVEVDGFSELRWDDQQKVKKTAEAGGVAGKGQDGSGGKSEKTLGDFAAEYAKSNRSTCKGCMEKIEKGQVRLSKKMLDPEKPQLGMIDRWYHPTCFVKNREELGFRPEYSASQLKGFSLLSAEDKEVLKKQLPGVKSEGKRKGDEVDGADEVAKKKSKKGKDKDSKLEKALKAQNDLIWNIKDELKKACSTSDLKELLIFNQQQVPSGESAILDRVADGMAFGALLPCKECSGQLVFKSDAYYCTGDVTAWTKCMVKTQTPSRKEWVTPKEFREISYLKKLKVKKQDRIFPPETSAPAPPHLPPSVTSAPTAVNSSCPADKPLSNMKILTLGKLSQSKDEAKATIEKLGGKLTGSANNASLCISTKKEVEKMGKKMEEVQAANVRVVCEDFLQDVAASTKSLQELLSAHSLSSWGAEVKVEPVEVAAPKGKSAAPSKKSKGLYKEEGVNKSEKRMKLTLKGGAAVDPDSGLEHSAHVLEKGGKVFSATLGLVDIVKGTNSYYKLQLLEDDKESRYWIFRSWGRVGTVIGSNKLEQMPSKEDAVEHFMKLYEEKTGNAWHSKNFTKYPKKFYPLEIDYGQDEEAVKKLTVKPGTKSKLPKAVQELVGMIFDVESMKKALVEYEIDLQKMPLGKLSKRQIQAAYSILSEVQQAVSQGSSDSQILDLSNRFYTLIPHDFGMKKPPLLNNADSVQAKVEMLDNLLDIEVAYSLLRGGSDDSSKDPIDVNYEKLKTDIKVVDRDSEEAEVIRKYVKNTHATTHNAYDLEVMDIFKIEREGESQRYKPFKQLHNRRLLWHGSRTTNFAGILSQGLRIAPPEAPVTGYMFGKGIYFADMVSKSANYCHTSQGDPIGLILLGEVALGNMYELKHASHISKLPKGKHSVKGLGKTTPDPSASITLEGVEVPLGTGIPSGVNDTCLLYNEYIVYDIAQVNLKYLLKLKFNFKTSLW
- Run Description: Intracellular PARP inhibitory activity (NAD(P)H released by MMS-treated CHO-K1 cells)
- Format: cell-based
Where a name gives a salt, the structure may show the parent alone.
Quantity: IC50 (nM)

>>> readout_number("CCOc1cc(CNC)cc2[nH]c(=O)c3c(c12)NCCC3 [Example 103, dihydrochloride]")
820
>>> readout_number("CN(C)CCc1ccc2c3c(c(=O)[nH]c2c1)CCCN3 [Example 32, dihydrochloride]")
3160
>>> readout_number("COc1cc(CNC(C)(C)C)cc2[nH]c(=O)c3c(c12)NCCC3 [Example 87, dihydrochloride]")
820
>>> readout_number("CCCOc1cc(CN(C)C)cc2[nH]c(=O)c3c(c12)NCCC3 [Example 110, dihydrochloride]")
90
>>> readout_number("CCN(CC)Cc1ccc2c3c(c(=O)[nH]c2c1)CCCN3 [Example 42, dihydrochloride]")
850
>>> readout_number("CCOc1cc(CN2CCOCC2)cc2[nH]c(=O)c3c(c12)NCCC3 [Example 101, dihydrochloride]")
1940
>>> readout_number("COc1cc(CN)cc2[nH]c(=O)c3c(c12)NCCC3 [Example 109, dihydrochloride]")
940
>>> readout_number("CCCOc1cc(CN)cc2[nH]c(=O)c3c(c12)NCCC3 [Example 114, dihydrochloride]")
1920
>>> readout_number("CCN(C)Cc1ccc2c3c(c(=O)[nH]c2c1)CCCN3 [Example 47, dihydrochloride]")
250
>>> readout_number("CCOc1ccc2[nH]c(=O)c3c(c2c1)NCCC3 [Example 20, hydrochloride]")
1300
>>> readout_number("COc1cc(CN(C)C)cc2[nH]c(=O)c3c(c12)NCCC3 [Example 72, dihydrochloride]")
90
>>> readout_number("COc1cc(CN2CCC(N3CCOCC3)CC2)cc2[nH]c(=O)c3c(c12)NCCC3 [Example 108, trihydrochloride]")
110
>>> readout_number("CNCc1cc(OC)c2c3c(c(=O)[nH]c2c1)CCCN3 [Example 73, dihydrochloride]")
1390
>>> readout_number("CC(c1ccc2c3c(c(=O)[nH]c2c1)CCCN3)N(C)C (centres unmarked) [Example 38, dihydrochloride]")
140
>>> readout_number("CCOc1cc(CN(C)C)cc2[nH]c(=O)c3c(c12)NCCC3 [Example 100, dihydrochloride]")
60
>>> readout_number("CN(C)Cc1ccc2c3c(c(=O)[nH]c2c1)CCCN3 [Example 41, dihydrochloride]")
50
>>> readout_number("CCOc1cc(CN)cc2[nH]c(=O)c3c(c12)NCCC3 [Example 113, dihydrochloride]")
1430

---

- Test system: A549 cell line
Counter-ions that a name gives are not always drawn.
Measured GI50 by item
Quantity: GI50 (µM)

>>> readout_number("CCOc1cc(CN2CCOCC2)cc2[nH]c(=O)c3c(c12)NCCC3 [Example 101, dihydrochloride]")
55
>>> readout_number("COc1cccc2[nH]c(=O)c3c(c12)NCCC3.Cl [Example 2, hydrochloride]")
59
>>> readout_number("COc1cc(CN2CCOCC2)cc2[nH]c(=O)c3c(c12)NCCC3 [Example 74, dihydrochloride]")
75

---

- Target Entity: PARP-1 enzyme (Homo sapiens (Human))
- Run Description: Poly(ADP-ribose)polymerase [PARP-1] enzyme inhibitory activity (Trevigen PARP Assay kit)
- Assay type: biochemical
- Experimental Conditions: read-out: PARP-1 Inhibitory activity IC50
- Method: The activity of the compounds according to the present invention to inhibit the PARP-1 enzyme was examined using a PARP Assay kit (4671-096-K) purchased from Trevigen. […] Histone was coated on 384-well plate, which is a small volume PS plate (784101) of Greiner Bio-One, and left at 25° C. for 2 hours. […] The amount of histone ribosylation formed by PARP-1 enzyme was quantified at 450 nm using Wallac EnVision™ (PerkinElmer Oy, Turku, Finland).
pIC50: −log10 of the molar value. Structures can show the parent of a compound that is named as a salt.
Quantity: pIC50

>>> readout_number("O=c1[nH]c2cc(OCCN3CCCCC3)ccc2c2c1CCCN2 [Example 35, dihydrochloride]")
5.45
>>> readout_number("COc1cc(CN(C)CCOC(C)C)cc2[nH]c(=O)c3c(c12)NCCC3 [Example 83, dihydrochloride]")
6.49
>>> readout_number("COc1cc(CNC2CCCC2)cc2[nH]c(=O)c3c(c12)NCCC3 [Example 89, dihydrochloride]")
6.57
>>> readout_number("O=c1[nH]c2ccc(OCCN3CCNCC3)cc2c2c1CCCN2 [Example 19, trihydrochloride]")
5.83
>>> readout_number("COc1cc(CN2CCSCC2)cc2[nH]c(=O)c3c(c12)NCCC3 [Example 106, dihydrochloride]")
7.05
>>> readout_number("COc1cc(CN2CCC(=O)CC2)cc2[nH]c(=O)c3c(c12)NCCC3 [Example 78, dihydrochloride]")
6.96
>>> readout_number("O=c1[nH]c2ccc(OCCN3CCCCC3)cc2c2c1CCCN2 [Example 17, dihydrochloride]")
6.34
>>> readout_number("COc1cc(CNCCN2CCOCC2)cc2[nH]c(=O)c3c(c12)NCCC3 [Example 107, trihydrochloride]")
7.15
>>> readout_number("COCCN(C)Cc1ccc2c3c(c(=O)[nH]c2c1)CCCN3 [Example 60, dihydrochloride]")
6.92
>>> readout_number("COc1cc(CN)cc2[nH]c(=O)c3c(c12)NCCC3 [Example 109, dihydrochloride]")
7.15
>>> readout_number("CN1CCCc2c1c1cc(OC3CCNCC3)ccc1[nH]c2=O [Example 13, dihydrochloride]")
5.41
>>> readout_number("CCOC(=O)CCN(C)Cc1ccc2c3c(c(=O)[nH]c2c1)CCCN3 [Example 57, dihydrochloride]")
6.32
>>> readout_number("CCCOc1cc(CN2CCOCC2)cc2[nH]c(=O)c3c(c12)NCCC3 [Example 111, dihydrochloride]")
6.02
>>> readout_number("COc1cc(CNC(C)(C)C)cc2[nH]c(=O)c3c(c12)NCCC3 [Example 87, dihydrochloride]")
6.21
>>> readout_number("NCCOc1ccc2[nH]c(=O)c3c(c2c1)NCCC3 [Example 22, dihydrochloride]")
5.94
>>> readout_number("COc1cc(CN2CC=CC2)cc2[nH]c(=O)c3c(c12)NCCC3 [Example 82, dihydrochloride]")
7.22
>>> readout_number("CC(C)N(C)Cc1ccc2c3c(c(=O)[nH]c2c1)CCCN3 [Example 59, dihydrochloride]")
6.72
>>> readout_number("CCN(CC)CCOc1ccc2[nH]c(=O)c3c(c2c1)NCCC3 [Example 26, dihydrochloride]")
6.41
>>> readout_number("CCCN1CCC(Oc2ccc3[nH]c(=O)c4c(c3c2)NCCC4)CC1 [Example 11, dihydrochloride]")
5.99
>>> readout_number("CCN(CC)Cc1ccc2c3c(c(=O)[nH]c2c1)CCCN3C [Example 68, dihydrochloride]")
5.92
>>> readout_number("CNCc1ccc2c3c(c(=O)[nH]c2c1)CCCN3 [Example 52, dihydrochloride]")
7.15
>>> readout_number("NCc1ccc2c3c(c(=O)[nH]c2c1)CCCN3 [Example 112, dihydrochloride]")
6.77
>>> readout_number("CCNCc1ccc2c3c(c(=O)[nH]c2c1)CCCN3 [Example 43, dihydrochloride]")
6.80
>>> readout_number("COc1cc(CNN2CCOCC2)cc2[nH]c(=O)c3c(c12)NCCC3 [Example 96, trihydrochloride]")
6.11
>>> readout_number("COCCN(C)Cc1cc(OC)c2c3c(c(=O)[nH]c2c1)CCCN3 [Example 81, dihydrochloride]")
6.96
>>> readout_number("COc1cc(CN(C)N2CCOCC2)cc2[nH]c(=O)c3c(c12)NCCC3 [Example 97, trihydrochloride]")
6.05
>>> readout_number("CC(c1ccc2c3c(c(=O)[nH]c2c1)CCCN3)N(C)C (centres unmarked) [Example 38, dihydrochloride]")
7.30
>>> readout_number("CCN(C)Cc1ccc2c3c(c(=O)[nH]c2c1)CCCN3 [Example 47, dihydrochloride]")
7.15
>>> readout_number("COc1cc(CN2CCCCC2)cc2[nH]c(=O)c3c(c12)NCCC3 [Example 84, dihydrochloride]")
6.82
>>> readout_number("CON=C1CCN(Cc2cc(OC)c3c4c(c(=O)[nH]c3c2)CCCN4)CC1 [Example 80, trihydrochloride]")
6.85
>>> readout_number("CCN(CC)Cc1cc(OC)c2c3c(c(=O)[nH]c2c1)CCCN3 [Example 86, dihydrochloride]")
6.96
>>> readout_number("COc1cc(CN2CCOCC2)cc2[nH]c(=O)c3c(c12)NCCC3 [Example 74, dihydrochloride]")
6.64
